Test system: OVCAR-3-derived ovarian cancer stem-like cells (spheroids)
TEST DETAILS: cell growth relative to untreated control; higher = more growth (less inhibition)
MEASUREMENT CONTEXT: 2.29 µM; 96 h
Reported cell growth by item:
READOUT: cell growth (%)

> print(dat)
                                    compound                       experimental.target      readout  scale.unit  numeric.result
 1  CC(C)(C)NCCC(O)c1cc(C(F)(F)F)nc2c(C(F)(F)F)cccc12 (centres undefined)  OVCAR-3-derived ovarian cancer stem-like cells (spheroids)  cell growth           %             108
 2    Clc1ccccc1C(c1ccccc1)(c1ccccc1)n1ccnc1  OVCAR-3-derived ovarian cancer stem-like cells (spheroids)  cell growth           %             106
 3  CCS(=O)(=O)Nc1ccc(Nc2c3ccccc3nc3ccccc23)c(OC)c1  OVCAR-3-derived ovarian cancer stem-like cells (spheroids)  cell growth           %            32.5
 4  CCCCCC(/C=C/[C@@H]1CC(=O)C[C@H]1O[Si](C)(C)C(C)(C)C)OCOCCOC (some centres undefined)  OVCAR-3-derived ovarian cancer stem-like cells (spheroids)  cell growth           %             110
 5           Oc1ccc(/C=N/NC(=S)Nc2cccnc2)nc1  OVCAR-3-derived ovarian cancer stem-like cells (spheroids)  cell growth           %             145
 6          Oc1ccc2ccccc2c1N=Nc1cccc2ccccc12  OVCAR-3-derived ovarian cancer stem-like cells (spheroids)  cell growth           %            82.9
 7  Nc1ccc(OCCCc2c(-c3ccccc3)nc(N)[nH]c2=O)cc1  OVCAR-3-derived ovarian cancer stem-like cells (spheroids)  cell growth           %            82.7
 8  COc1cccc2c1C(=O)c1c(O)c3c(c(O)c1C2=O)C[C@@](O)(C(C)=O)C[C@@H]3O[C@@H]1C[C@@H](N(C)C)[C@@H](O)[C@@H](C)O1  OVCAR-3-derived ovarian cancer stem-like cells (spheroids)  cell growth           %            26.5
 9  NC(=O)C1=C[C@H]2[C@H]3C=C[C@@]2(O)C(=O)O[C@@H]3O1  OVCAR-3-derived ovarian cancer stem-like cells (spheroids)  cell growth           %            91.3
10  CN(C)[C@@H]1C(=O)C(C(N)=O)=C(O)[C@@]2(O)C(=O)C3=C(O)c4c(O)cccc4C[C@H]3C[C@@H]12  OVCAR-3-derived ovarian cancer stem-like cells (spheroids)  cell growth           %            57.8
11           N[C@H](C(=O)O)[C@@H]1CC(Cl)=NO1  OVCAR-3-derived ovarian cancer stem-like cells (spheroids)  cell growth           %            85.3
12  CCC1=C(C[C@H]2NCCc3cc(OC)c(OC)cc32)C[C@H]2c3cc(OC)c(OC)cc3CCN2C1  OVCAR-3-derived ovarian cancer stem-like cells (spheroids)  cell growth           %            21.1
13  C(=N\NC1=NCCN1)/c1c2ccccc2c(/C=N/NC2=NCCN2)c2ccccc12  OVCAR-3-derived ovarian cancer stem-like cells (spheroids)  cell growth           %            21.4
14  O=C(CC(=O)c1ccccc1NC1=Cc2ccccc2C(=O)C1=O)C(=O)NC1=C(Cl)C(=O)c2ccccc2C1=O  OVCAR-3-derived ovarian cancer stem-like cells (spheroids)  cell growth           %            33.3
15    O=C1c2ccccc2C(=O)c2c(NCCNCCO)ccc(O)c21  OVCAR-3-derived ovarian cancer stem-like cells (spheroids)  cell growth           %            67.2
16  CC(C)CCCC(=O)CCCCCCC(=O)CCN(O)C(=O)C(N)CO (centres undefined)  OVCAR-3-derived ovarian cancer stem-like cells (spheroids)  cell growth           %             136
17                  Nc1ccc2cc3ccc(N)cc3nc2c1  OVCAR-3-derived ovarian cancer stem-like cells (spheroids)  cell growth           %            25.8
18     CN(C)c1ccc(/C=C2\CCc3ccccc3C2=O)cc1Br  OVCAR-3-derived ovarian cancer stem-like cells (spheroids)  cell growth           %            91.4
19  CC1=C/C(=N\OCC(=O)O)CC(c2ccc(C(C)C)cc2)C1 (centres undefined)  OVCAR-3-derived ovarian cancer stem-like cells (spheroids)  cell growth           %            12.4
